Reference source: PubChem BioAssay AID1963871

# Tested on: KRAS-mutant PDC multicell tumor spheroid viability;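 also: viability read after seven days of drug exposure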
# experiment: Anticancer human tumor 521955-158-R2-J5-PDC patient-derived pancreatic carcinoma cell line growth inhibition [KRAS2]
# statedConditions: second compound 10 µM; first compound 3.16 µM; hits give low values
measuredEndpoint: viability, T/C (%)
Answers are plain numbers, in %.

Give measured viability, T/C for every item shown.
1. Cn1nccc1Nc1nccc(-c2cc3c(s2)C(C)(C)N(CCN2CCOCC2)C3=O)n1 + CC1OCC2(CCN(c3cnc(Sc4ccnc(N)c4Cl)c(N)n3)CC2)C1N
2. CC(C)NCC(C(=O)N1CCN(c2ncnc3c2C(C)CC3O)CC1)c1ccc(Cl)cc1 (stereo not drawn) + CC1OCC2(CCN(c3cnc(Sc4ccnc(N)c4Cl)c(N)n3)CC2)C1N
3. CC(=O)OC12COC1CC(O)C1(C)C(=O)C(O)C3=C(C)C(OC(=O)C(O)C(NC(=O)OC(C)(C)C)c4ccccc4)CC(O)(C(OC(=O)c4ccccc4)C21)C3(C)C (stereo not drawn) + COc1cc2nc(C)nc(NC(C)c3cc(N)cc(C(F)(F)F)c3)c2cc1OC1CCOC1

1. 27.3
2. 41.5
3. 18.9
